Measured values drawn from patent US9873702B2 for this set.

Molecular target: UniProt:Q9WTR4
Experiment: Norepinephrine reuptake ([^3H]norepinephrine uptake) inhibition in rat brain synaptosomes
Conditions: read-out: NE Uptake EC50 (nM ± SD); rat brain synaptosomes; 10 nM [^3H]norepinephrine; 10 min, 37° C.
Lab note: compare IC50 with 200 nM, writing label 1 if less and label 0 if equal or more.

Given the entry Cn1cc2cc(-c3nc(NCC(c4ccccc4)c4ccccc4)c4ccccc4n3)ccc2n1 , would its reported IC50 be below 200 nM?
label 0

Next:
Given the entry CN(C)c1ccc(-c2nc(NCC(c3ccccc3)c3ccccc3)c3ccccc3n2)cn1 , would its reported IC50 be below 200 nM?
label 1

Given the entry CN(C)c1ncc(-c2nc(NC(c3ccccc3)c3ccccc3)c3ccccc3n2)cn1 , would its reported IC50 be below 200 nM?
label 0

Given the entry CNc1ncc(-c2nc(NCC(c3ccccc3)c3ccccc3)c3ccccc3n2)cn1 , would its reported IC50 be below 200 nM?
label 1

Given the entry Cl.Fc1ccc2c(NCC(c3ccccc3)c3ccccc3)nc(-c3ccc4nccn4c3)nc2c1 [compound 124, Hydrochloride] , would its reported IC50 be below 200 nM?
label 1

Given the entry OC(CNc1nc(-c2cnc3nccn3c2)nc2ccccc12)(c1ccccc1)c1ccccc1 , would its reported IC50 be below 200 nM?
label 1

* * *

Target: serotonin transporter (SERT) (Rattus norvegicus, UniProt P31652)
Construct: Freshly removed whole brain minus cerebellum and caudate was homogenized; from tissue; host or cells: rat whole brain minus cerebellum and caudate, synaptosomes
Sequence (P31652 whole entry): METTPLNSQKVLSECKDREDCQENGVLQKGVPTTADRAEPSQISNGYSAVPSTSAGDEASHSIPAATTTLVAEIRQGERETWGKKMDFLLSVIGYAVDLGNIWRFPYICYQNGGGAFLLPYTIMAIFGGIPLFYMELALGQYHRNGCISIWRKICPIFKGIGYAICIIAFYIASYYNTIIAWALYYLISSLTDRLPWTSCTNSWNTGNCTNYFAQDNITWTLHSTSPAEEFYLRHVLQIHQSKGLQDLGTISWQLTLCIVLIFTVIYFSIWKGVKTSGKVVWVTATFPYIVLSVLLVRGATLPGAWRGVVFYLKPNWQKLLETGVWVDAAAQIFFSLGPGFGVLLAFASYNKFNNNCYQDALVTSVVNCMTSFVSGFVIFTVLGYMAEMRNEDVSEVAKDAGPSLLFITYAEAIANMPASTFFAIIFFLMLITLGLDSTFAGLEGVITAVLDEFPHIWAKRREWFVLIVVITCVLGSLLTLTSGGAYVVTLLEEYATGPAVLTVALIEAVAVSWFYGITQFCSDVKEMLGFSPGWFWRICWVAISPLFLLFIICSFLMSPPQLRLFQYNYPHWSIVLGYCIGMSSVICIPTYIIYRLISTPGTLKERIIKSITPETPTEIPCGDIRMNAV
Test: Serotonin reuptake ([^3H]serotonin uptake) inhibition in rat brain synaptosomes
Type: biochemical
Details: mean ± S.D., n = 3; read-out: SERT Uptake IC50
Entries and their log10 of IC50
Please be aware that the numbers have been log10-transformed from IC50 in nM.

Give log10 of IC50; test system serotonin transporter (SERT) (Rattus norvegicus, UniProt P31652); molecule CN(C)c1ncc(-c2nc(NCC(c3ccccc3)c3ccccc3)c3ccccc3n2)cn1
1.57

Give log10 of IC50; test system serotonin transporter (SERT) (Rattus norvegicus, UniProt P31652); molecule Cc1cc(NS(C)(=O)=O)ccc1-c1nc(NCC(c2ccccc2)c2ccncc2)c2ccccc2n1 (stereo not drawn)
0.90

Give log10 of IC50; test system serotonin transporter (SERT) (Rattus norvegicus, UniProt P31652); molecule OC(CNc1nc(-c2cnc3nccn3c2)nc2ccccc12)(c1ccccc1)c1ccccc1
0.59

Give log10 of IC50; test system serotonin transporter (SERT) (Rattus norvegicus, UniProt P31652); molecule CS(=O)(=O)Nc1ccc(-c2nc(NCC(O)(c3ccccc3)c3ccccc3)c3ccccc3n2)cc1
1.70

Give log10 of IC50; test system serotonin transporter (SERT) (Rattus norvegicus, UniProt P31652); molecule c1ccc(C(CNc2nc(-c3cnc4nccn4c3)nc3ccccc23)C2CCCCC2)cc1 (stereo not drawn)
1.36

Now for a further molecule.
Give log10 of IC50; test system serotonin transporter (SERT) (Rattus norvegicus, UniProt P31652); molecule c1ccc(C(CNc2nc(-c3ccc4nccn4c3)nc3ccccc23)c2ccc[nH]2)cc1 (stereo not drawn)
1.26

* * *

Target: norepinephrine transporter (NET) (Rattus norvegicus, UniProt Q9WTR4)
Test: Norepinephrine reuptake ([^3H]norepinephrine uptake) inhibition in rat brain synaptosomes
Settings: rat brain synaptosomes; 10 nM [^3H]norepinephrine; maximal inhibition from dose-response fit
Entries and their NE Uptake Emax (% I ± SD)
The figure you give is taken to be in % I; do not add the unit.

A selection of reference data follows.
Given the molecule c1ccc(C(CNc2nc(-c3cnc4nccn4c3)nc3ccccc23)c2ccncc2)cc1 (stereo not shown) , write its reported NE Uptake Emax (% I ± SD).
69

Given the molecule Cn1cc2cc(-c3nc(NCC(c4ccccc4)c4ccccc4)c4ccccc4n3)ccc2n1 , write its reported NE Uptake Emax (% I ± SD).
71

Given the molecule CN(C)c1ccc(-c2nc(NCC(c3ccccc3)c3ccccc3)c3ccccc3n2)cn1 , write its reported NE Uptake Emax (% I ± SD).
71

Now for a further molecule.
Given the molecule CN(C)c1ncc(-c2nc(NC(c3ccccc3)c3ccccc3)c3ccccc3n2)cn1 , write its reported NE Uptake Emax (% I ± SD).
64

* * *

Biological target: dopamine transporter (DAT) (Rattus norvegicus, UniProt P23977)
Sequence (P23977 whole entry): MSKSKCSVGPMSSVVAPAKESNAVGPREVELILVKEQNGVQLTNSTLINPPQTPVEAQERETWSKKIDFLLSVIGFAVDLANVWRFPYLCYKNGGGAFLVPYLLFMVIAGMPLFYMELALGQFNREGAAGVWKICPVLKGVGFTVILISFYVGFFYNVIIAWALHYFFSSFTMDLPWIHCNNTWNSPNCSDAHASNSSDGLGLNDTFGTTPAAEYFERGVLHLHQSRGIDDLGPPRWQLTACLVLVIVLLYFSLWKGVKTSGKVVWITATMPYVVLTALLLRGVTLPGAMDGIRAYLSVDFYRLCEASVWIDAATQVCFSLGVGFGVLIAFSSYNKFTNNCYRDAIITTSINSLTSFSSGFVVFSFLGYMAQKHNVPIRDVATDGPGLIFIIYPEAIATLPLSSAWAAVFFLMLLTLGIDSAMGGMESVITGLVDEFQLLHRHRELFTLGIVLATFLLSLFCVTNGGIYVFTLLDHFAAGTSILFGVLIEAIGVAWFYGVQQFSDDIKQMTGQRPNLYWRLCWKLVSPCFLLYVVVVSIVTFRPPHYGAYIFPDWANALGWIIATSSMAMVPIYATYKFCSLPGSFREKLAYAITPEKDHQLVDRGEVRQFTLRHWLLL
Experiment: Dopamine reuptake ([^3H]dopamine uptake) inhibition in rat brain synaptosomes
measuredParameter: pIC50
// returns pIC50 (minus log10 of molar concentration), number only

Given the molecule Cl.c1ccc(C(CNc2nc(-c3ccc4nccn4c3)nc3cc(OCCCN4CCOCC4)ccc23)c2ccccc2)cc1 [compound 125, Hydrochloride] , write its reported pIC50.
7.12

* * *

Biological target: UniProt P23977
Test: Dopamine reuptake ([^3H]dopamine uptake) inhibition in rat brain synaptosomes
Conditions: DA Uptake EC50 (nM ± SD), rat caudate synaptosomes; 5 nM [^3H]dopamine; 15 min, 25° C.; three experiments pooled
Lab note: compare IC50 with 60 nM, writing 1 (yes) if less and 0 (no) if equal or more.

Given the entry c1ccc(C(CNc2nc(-c3ccc4scnc4c3)nc3ccccc23)c2ccccc2)cc1 [compound 145] , would its reported IC50 be below 60 nM?
0 (no)

Next:
Given the entry c1ccc(C(CCNc2nc(-c3cncnc3)nc3ccccc23)c2ccccc2)cc1 [compound 22] , would its reported IC50 be below 60 nM?
0 (no)

Given the entry COCc1c[nH]c2ccc(-c3nc(NCC(c4ccccc4)c4ccccc4)c4ccccc4n3)cc12 [compound 116] , would its reported IC50 be below 60 nM?
0 (no)

Given the entry COc1cc2nc(-c3ccc4[nH]ccc4c3)nc(NCC(c3ccccc3)c3ccccc3)c2cc1OC [compound 24] , would its reported IC50 be below 60 nM?
1 (yes)

Given the entry c1ccc(C(c2ccccc2)N2CC(Nc3nc(-c4ccc5nccn5c4)nc4ccccc34)C2)cc1 [compound 148] , would its reported IC50 be below 60 nM?
0 (no)

Given the entry c1ccc(C(Nc2nc(-c3ccc4[nH]ccc4c3)nc3ccccc23)c2ccccc2)cc1 [compound 13] , would its reported IC50 be below 60 nM?
0 (no)

Given the entry Cn1cc2c(-c3nc(NCC(c4ccccc4)c4ccccc4)c4ccccc4n3)cccc2n1 [compound 68] , would its reported IC50 be below 60 nM?
0 (no)

Given the entry COc1cc2nc(-c3ccsc3)nc(NCC(c3ccccc3)c3ccccc3)c2cc1OC [compound 27] , would its reported IC50 be below 60 nM?
0 (no)

Given the entry c1ccc(C(CNc2nc(-c3cccnc3)nc3ccccc23)c2ccccc2)cc1 [compound 2] , would its reported IC50 be below 60 nM?
0 (no)

* * *

Molecular target: norepinephrine transporter (NET) (Rattus norvegicus, UniProt Q9WTR4)
Assay: Norepinephrine reuptake ([^3H]norepinephrine uptake) inhibition in rat brain synaptosomes
Details: rat brain synaptosomes; 10 nM [^3H]norepinephrine; maximal inhibition from dose-response fit
Cut-off 70 % I on NE Uptake Emax (% I ± SD), inclusive. At or above means 1; below means 0.

hey, is NE Uptake Emax (% I ± SD) for this one >= 70 % I? c1ccc(C(Nc2nc(-c3ccc4[nH]ccc4c3)nc3ccccc23)c2ccccc2)cc1
0

hey, is NE Uptake Emax (% I ± SD) for this one >= 70 % I? Cc1cc2nccn2cc1-c1nc(NCC(c2ccccc2)c2ccccc2)c2ccccc2n1
0

hey, is NE Uptake Emax (% I ± SD) for this one >= 70 % I? OC(CNc1nc(-c2cnc3nccn3c2)nc2ccccc12)(c1ccccc1)c1ccccc1
1

hey, is NE Uptake Emax (% I ± SD) for this one >= 70 % I? c1ccc(C(CNc2nc(-c3ccc4ncnn4c3)nc3ccccc23)c2ccccc2)cc1
0

Next:
hey, is NE Uptake Emax (% I ± SD) for this one >= 70 % I? CSc1ncc(-c2nc(NCC(c3ccccc3)c3ccccc3)c3ccccc3n2)cn1
0

hey, is NE Uptake Emax (% I ± SD) for this one >= 70 % I? CN(C)c1ncc(-c2nc(NCC(c3ccccc3)c3ccccc3)c3ccccc3n2)cn1
1

hey, is NE Uptake Emax (% I ± SD) for this one >= 70 % I? c1ccc(C(CNc2nc(-c3ccc4nccn4c3)nc3ccccc23)c2cccnc2)cc1 (stereo not drawn)
1

hey, is NE Uptake Emax (% I ± SD) for this one >= 70 % I? OC(CNc1nc(-c2ccc3nccn3c2)nc2ccccc12)(c1ccccc1)c1ccccc1
0

hey, is NE Uptake Emax (% I ± SD) for this one >= 70 % I? c1ccc(C(CNc2nc(-c3cnc4nccn4c3)nc3ccccc23)c2ccccn2)cc1 (stereo not drawn)
1

hey, is NE Uptake Emax (% I ± SD) for this one >= 70 % I? Cl.Fc1ccc2c(NCC(c3ccccc3)c3ccccc3)nc(-c3ccc4nccn4c3)nc2c1
0

hey, is NE Uptake Emax (% I ± SD) for this one >= 70 % I? c1ccc(C(CCNc2nc(-c3ccc4[nH]ccc4c3)nc3ccccc23)c2ccccc2)cc1
1

hey, is NE Uptake Emax (% I ± SD) for this one >= 70 % I? CNc1ncc(-c2nc(NCC(c3ccccc3)c3ccccc3)c3ccccc3n2)cn1
1

hey, is NE Uptake Emax (% I ± SD) for this one >= 70 % I? c1ccc(C(CNc2nc(-c3ccc4nccn4c3)nc3ccccc23)c2ccc[nH]2)cc1 (stereo not drawn)
1

hey, is NE Uptake Emax (% I ± SD) for this one >= 70 % I? CN(C)c1ncc(-c2nc(NCCC(c3ccccc3)c3ccccc3)c3ccccc3n2)cn1
0
